# EXPERIMENTAL SYSTEM: Cathepsin S (UniProt P25774)
# PROCEDURE TEXT: Cathepsin enzyme inhibition assay (fluorogenic peptide substrate Z-Val-Val-Arg-AMC), Cathepsin S
# Type: biochemical, human and mouse
# MEASUREMENT CONDITIONS: enzyme 1 nM, substrate 20 μM, pH 6.5; read-out: CatS IC50
pIC50: −log10 of the molar value. Where a name gives a salt, the structure may show the parent alone.
MEASURE: pIC50

>  <COMPOUND>
N#CC1(NC(=O)[C@@H]2C[C@@H](S(=O)(=O)c3ccccc3Cl)CN2C(=O)c2ccc(F)cc2)CC1

>  <RESULT VALUE>
8.85

$$$$
>  <COMPOUND>
N#CCNC(=O)[C@@H]1C[C@@H](S(=O)(=O)c2ccccc2C(F)(F)F)CN1C(=O)OC1CCCC1

>  <RESULT VALUE>
9.10

$$$$
>  <COMPOUND>
N#CC1(NC(=O)[C@@H]2C[C@@H](S(=O)(=O)c3ccc(OCC(F)(F)F)cc3Cl)CN2C(=O)C2(c3cccc4ccccc34)OCCO2)CC1

>  <RESULT VALUE>
9.08

$$$$
>  <COMPOUND>
Cc1ccc(=O)n(-c2ccc(S(=O)(=O)[C@H]3CN[C@H](C(=O)NC4(C#N)CC4)C3)c(C(F)(F)F)c2)n1 [Example 23, hydrochloride]

>  <RESULT VALUE>
9.05

$$$$
>  <COMPOUND>
N#CC1(NC(=O)[C@@H]2C[C@@H](S(=O)(=O)c3ccc(OCC(F)(F)F)cc3Cl)CN2C(=O)C2(c3cccc4ccccc34)CC2)CC1

>  <RESULT VALUE>
9.07

$$$$
>  <COMPOUND>
N#CC1(NC(=O)[C@@H]2C[C@@H](S(=O)(=O)c3ccccc3Cl)CN2C(=O)C2(CO)CC2)CC1

>  <RESULT VALUE>
8.93

$$$$
>  <COMPOUND>
CC(C)(C)OC(=O)N1C[C@H](S(=O)(=O)c2c(Cl)cccc2Cl)C[C@H]1C(=O)NC1(C#N)CC1 [Example 5]

>  <RESULT VALUE>
9.10

$$$$
>  <COMPOUND>
Cc1cc(N2C[C@H](S(=O)(=O)c3ccccc3C(F)(F)F)C[C@H]2C(=O)NC2(C#N)CC2)n(CC(F)(F)F)n1

>  <RESULT VALUE>
8.80

$$$$

---

# EXPERIMENTAL SYSTEM: Cat L (UniProt P07711)
# PROCEDURE TEXT: Cathepsin enzyme inhibition assay (fluorogenic peptide substrate Z-Val-Val-Arg-AMC), Cathepsin L
# Format: biochemical, human and mouse
# MEASUREMENT CONDITIONS: enzyme 1 nM, substrate 20 μM, pH 6.5; read-out: CatL IC50
Where a name gives a salt, the structure may show the parent alone.

>  <COMPOUND>
N#CC1(NC(=O)[C@@H]2C[C@@H](S(=O)(=O)c3cccc(Cl)c3Cl)CN2)CC1 [Example 51, Hydrochloride]

>  <IC50>
≥ 25 µM

$$$$
>  <COMPOUND>
N#CC1(NC(=O)[C@@H]2C[C@@H](S(=O)(=O)c3ccc(-n4ccncc4=O)cc3C(F)(F)F)CN2)CC1 [Example 32, hydrochloride]

>  <IC50>
≥ 25 µM

$$$$
>  <COMPOUND>
N#CC1(NC(=O)[C@@H]2C[C@@H](S(=O)(=O)c3ccccc3Cl)CN2CC(F)(F)F)CC1

>  <IC50>
≥ 25 µM

$$$$
>  <COMPOUND>
CC(C)(C)OC(=O)N1C[C@H](S(=O)(=O)c2ccc(N3CCC(F)(F)C3)cc2Cl)C[C@H]1C(=O)NC1(C#N)CC1

>  <IC50>
≥ 25 µM

$$$$
>  <COMPOUND>
CC(C)(C)OC(=O)N1C[C@H](S(=O)(=O)c2ccccc2OC(F)(F)F)C[C@H]1C(=O)NC1(C#N)CC1

>  <IC50>
≥ 25 µM

$$$$
